Values compiled from patent US20100267561A1.

# Test system: goosegrass (Eleusine indica)
# ASSAY NOTES: Test B pre-/postemergence plant response
# Type: in vivo
# MEASUREMENT CONTEXT: Postemergence, 62 g ai/ha; scale 0 to 100, 0 no effect, 100 complete control
QUANTITY NAME: Plant response rating, Goosegrass
Number, no unit, nothing else.

- RECORD SMILES: "Cc1cc(-c2ccc(Cl)cc2)nn1-c1c(OC(=O)OCC(C)C)cnn(C)c1=O"
  Plant response rating, Goosegrass: 90
- RECORD SMILES: "Cc1cc(-c2ccc(Cl)cc2)nn1-c1c(OC(=O)C(C)C)cnn(C)c1=O"
  Plant response rating, Goosegrass: 80
- RECORD SMILES: "COC(=O)Oc1cnn(C)c(=O)c1-n1nc(-c2ccc(Cl)cc2)cc1C"
  Plant response rating, Goosegrass: 100

Param readout = Plant response rating, Goosegrass; param system = goosegrass (Eleusine indica); param query = Cn1ncc(O)c(-c2nn(-c3ccc(Cl)cc3)cc2Cl)c1=O ; response: value
90

====

# Test system: johnsongrass (Sorghum halepense)
# ASSAY NOTES: Test B pre-/postemergence plant response
# Format: in vivo
# MEASUREMENT CONTEXT: 8 g ai/ha, postemergence; 0-100 scale
QUANTITY NAME: Johnsongrass plant response rating
Number, no unit, nothing else.

Check out these entries, answers already filled in.
- MOLECULE: "Cc1nn(C)c(=O)c(-n2nc(-c3ccc(Br)cc3)cc2C)c1O [Compound 81]"
  MEASURED TARGET: "johnsongrass (Sorghum halepense)"
  Johnsongrass plant response rating: 75
- MOLECULE: "CCc1cc(-c2ccc(Cl)cc2)nn1-c1c(OC(=O)OC(C)C)cnn(C)c1=O [Compound 41]"
  MEASURED TARGET: "johnsongrass (Sorghum halepense)"
  Johnsongrass plant response rating: 50
- MOLECULE: "Cc1cc(-c2ccc(Br)cc2)nn1-c1c(O)cn[nH]c1=O [Compound 78]"
  MEASURED TARGET: "johnsongrass (Sorghum halepense)"
  Johnsongrass plant response rating: 75
- MOLECULE: "Cc1cc(-c2ccc(Cl)cc2)nn1-c1c(OC(=O)C(C)C)cnn(C)c1=O [Compound 34]"
  MEASURED TARGET: "johnsongrass (Sorghum halepense)"
  Johnsongrass plant response rating: 75
- MOLECULE: "CCc1cc(-c2ccc(Cl)c(Cl)c2)nn1-c1c(O)cnn(C)c1=O [Compound 20]"
  MEASURED TARGET: "johnsongrass (Sorghum halepense)"
  Johnsongrass plant response rating: 30

So what does the record say about Johnsongrass plant response rating for CCc1cc(-c2ccc(F)cc2)nn1-c1c(O)cnn(C)c1=O [Compound 25] ?
0

So what does the record say about Johnsongrass plant response rating for CCc1cc(-c2ccc(C(F)(F)F)cc2)nn1-c1c(OS(C)(=O)=O)cnn(C)c1=O [Compound 19] ?
40

So what does the record say about Johnsongrass plant response rating for Cc1cc(-c2ccc(Cl)cc2)nn1-c1c(OC(=O)OCC(C)C)cnn(C)c1=O [Compound 57] ?
15

So what does the record say about Johnsongrass plant response rating for CCc1cc(-c2ccc(C(F)(F)F)cc2)nn1-c1c(O)cnn(CC)c1=O [Compound 67] ?
80

====

# Tested on: lambsquarters (Chenopodium album)
# ASSAY NOTES: Test B pre-/postemergence plant response
# Assay type: in vivo
# MEASUREMENT CONTEXT: Postemergence, 62 g ai/ha; scale 0 to 100, 0 no effect, 100 complete control
This listing pairs molecules with measured Plant response rating, Lambsquarters.
Number, no unit, nothing else.

Check out these entries, answers already filled in.
- MOLECULE: "Cc1nn(C)c(=O)c(-n2nc(-c3ccc(Br)cc3)cc2C)c1O [Compound 81]"
  MEASURED TARGET: "lambsquarters (Chenopodium album)"
  Plant response rating, Lambsquarters: 0
- MOLECULE: "COCc1cc(-c2ccc(Br)cc2)nn1-c1c(O)cnn(C)c1=O [Compound 68]"
  MEASURED TARGET: "lambsquarters (Chenopodium album)"
  Plant response rating, Lambsquarters: 0
- MOLECULE: "CCc1cc(-c2ccc(C(F)(F)F)cc2)nn1-c1c(O)cnn(CC)c1=O [Compound 67]"
  MEASURED TARGET: "lambsquarters (Chenopodium album)"
  Plant response rating, Lambsquarters: 0
- MOLECULE: "Cc1cc(-c2ccc(Cl)cc2)nn1-c1c(OC(=O)OCC(C)C)cnn(C)c1=O [Compound 57]"
  MEASURED TARGET: "lambsquarters (Chenopodium album)"
  Plant response rating, Lambsquarters: 0

Now consider a different molecule.
So what does the record say about Plant response rating, Lambsquarters for CCc1cc(-c2ccc(Cl)cc2)nn1-c1c(OC(=O)OC(C)C)cnn(C)c1=O [Compound 41] ?
0

====

# Test system: giant foxtail (Setaria faberii)
# ASSAY NOTES: Test B pre-/postemergence plant response
# Format: in vivo
# MEASUREMENT CONTEXT: Postemergence, 62 g ai/ha; scale 0 to 100, 0 no effect, 100 complete control
QUANTITY NAME: Plant response rating, Foxtail, Giant
Number, no unit, nothing else.

So what does the record say about Plant response rating, Foxtail, Giant for Cc1cc(-c2ccc(Cl)cc2)nn1-c1c(OC(=O)c2ccccc2)cnn(C)c1=O ?
100

So what does the record say about Plant response rating, Foxtail, Giant for Cc1cc(-c2ccc(Cl)cc2)nn1-c1c(OC(=O)C(C)C)cnn(C)c1=O ?
100

So what does the record say about Plant response rating, Foxtail, Giant for COC(=O)Oc1cnn(C)c(=O)c1-n1nc(-c2ccc(Cl)cc2)cc1C ?
100

So what does the record say about Plant response rating, Foxtail, Giant for CCc1cc(-c2ccc(Cl)cc2)nn1-c1c(OS(C)(=O)=O)cnn(C)c1=O ?
100

So what does the record say about Plant response rating, Foxtail, Giant for Cc1cc(-c2ccc(Cl)cc2)nn1-c1c(OC(=S)N(C)C)cnn(C)c1=O ?
100

====

# System: blackgrass (Alopecurus myosuroides)
# ASSAY NOTES: Test A pre-/postemergence plant response
# Type: in vivo
# MEASUREMENT CONTEXT: Preemergence, 31 g ai/ha; 0 to 100 scale, 0 is no effect, 100 is complete control
QUANTITY NAME: Plant response rating, Blackgrass
Number, no unit, nothing else.

Check out these entries, answers already filled in.
- COMPOUND: "Cc1cc(-c2ccc(Cl)cc2)nn1-c1c(OC(=S)N(C)C)cnn(C)c1=O [Compound 69]"
  MEASURED TARGET: "blackgrass (Alopecurus myosuroides)"
  Plant response rating, Blackgrass: 20
- COMPOUND: "COc1nn(C)c(=O)c(-n2nc(-c3ccc(Br)cc3)cc2C)c1O [Compound 93]"
  MEASURED TARGET: "blackgrass (Alopecurus myosuroides)"
  Plant response rating, Blackgrass: 30
- COMPOUND: "COCc1cc(-c2ccc(Br)cc2)nn1-c1c(O)cnn(C)c1=O [Compound 68]"
  MEASURED TARGET: "blackgrass (Alopecurus myosuroides)"
  Plant response rating, Blackgrass: 0
- COMPOUND: "Cc1cn(-c2ccc(Cl)cn2)nc1-c1c(O)cnn(C)c1=O [Compound 84]"
  MEASURED TARGET: "blackgrass (Alopecurus myosuroides)"
  Plant response rating, Blackgrass: 0
- COMPOUND: "Cc1c(Br)c(-c2ccc(Br)cc2)nn1-c1c(O)cnn(C)c1=O [Compound 70]"
  MEASURED TARGET: "blackgrass (Alopecurus myosuroides)"
  Plant response rating, Blackgrass: 0

So what does the record say about Plant response rating, Blackgrass for Cc1nn(C)c(=O)c(-n2nc(-c3ccc(C(F)(F)F)cc3)cc2C)c1O [Compound 75] ?
40

So what does the record say about Plant response rating, Blackgrass for CCc1cc(-c2ccc(Br)cc2)nn1-c1c(O)c(OC)nn(C)c1=O [Compound 89] ?
90

====

# Test system: barnyardgrass (Echinochloa crus-galli)
# ASSAY NOTES: Test A pre-/postemergence plant response
# Assay type: in vivo
# MEASUREMENT CONTEXT: Postemergence, 125 g ai/ha; 0 to 100 scale, 0 no effect, 100 complete control
This listing pairs compounds with measured Plant response rating, Barnyardgrass.

Check out these entries, answers already filled in.
- COMPOUND: "Cc1cc(-c2ccc(Cl)cc2)nn1-c1c(OC(=O)C(C)C)cnn(C)c1=O [Compound 34]"
  Plant response rating, Barnyardgrass: 100
- COMPOUND: "CCc1cc(-c2ccc(C(F)(F)F)cc2)nn1-c1c(OC(=O)c2ccc(Cl)nc2)cnn(C)c1=O [Compound 94]"
  Plant response rating, Barnyardgrass: 100
- COMPOUND: "CCc1cc(-c2ccc(Cl)cc2)nn1-c1c(OC(=O)C(C)(C)C)cnn(C)c1=O [Compound 40]"
  Plant response rating, Barnyardgrass: 100
- COMPOUND: "Cc1nn(-c2ccc(Cl)cc2)cc1-c1c(O)cnn(C)c1=O [Compound 29]"
  Plant response rating, Barnyardgrass: 10
- COMPOUND: "Cc1cc(-c2ccc(Cl)cc2)nn1-c1c(OC(=O)c2ccccc2)cnn(C)c1=O [Compound 48]"
  Plant response rating, Barnyardgrass: 90

Now consider a different compound.
Param readout = Plant response rating, Barnyardgrass; param system = barnyardgrass (Echinochloa crus-galli); param query = CCc1cc(-c2ccc(F)cc2)nn1-c1c(O)cnn(C)c1=O [Compound 25] ; response: value
100
